# Test system: Caco-2 cells
# ASSAY_NAME: Membrane permeability test using Caco-2 cells with preincubation
# Assay type: in vitro ADME
# CONDITION_SUMMARY: Caco-2 cells, preincubation 20 to 24 hours; apical FaSSIF/HBSS 1% DMSO pH 6.0, basal HBSS 4% BSA pH 7.4; basal sample at 180 minutes
# Protocol: The permeability coefficient (Caco-2 Papp (cm/sec)) is calculated using a numerical expression 1. [Expression 1] Papp = (1)/(C1 (0) × S) × (dQ)/(dt) [formula] dQ/dt represents the permeation rate of drug (the amount of drug appearing on the Basal side per unit time), S represents the total surface area of cells, and C1(0) represents the concentration of drug added on the Apical side. […]
Positions of bridges follow the written chain, without caps; N, C: chain ends. Non-standard residues stand in square brackets, D forms with d. Residues, ends and D or L forms follow the SMILES beside them. *: point of attachment. NMeF = CN[C@@H](Cc1ccccc1)C(=O)O; NMeI = CC[C@H](C)[C@H](NC)C(=O)O; NMeD = CN[C@@H](CC(=O)O)C(=O)O; NMeL = CN[C@@H](CC(C)C)C(=O)O; NMeV = CN[C@H](C(=O)O)C(C)C; NMeA = CN[C@@H](C)C(=O)O; Piperidide = C1CCN(*)CC1; Sar = CNCC(=O)O; tBu = CC(C)(C)*
PROPERTY_LABEL: Caco2 Papp (10^-6 cm/sec)

Can you look up the measured Caco2 Papp (10^-6 cm/sec) of CC[C@H](C)[C@@H]1NC(=O)[C@H]([C@@H](C)CC)N(C)C(=O)[C@@H](C)NC(=O)C[C@@H](C(=O)N2CCCCC2)N(C)C(=O)[C@H](C(C)C)NC(=O)[C@H](Cc2ccccc2)N(C)C(=O)[C@H](C(C)C)NC(=O)[C@H](CC(C)C)N(C)C(=O)[C@H](C)NC(=O)CN(C)C(=O)[C@H](CC(C)C)N(C)C(=O)[C@H](C(C)C)NC(=O)[C@H](C)N(C)C(=O)[C@H](Cc2ccccc2)N(C)C1=O [pd074] ([dA][NMeI]I[NMeF][NMeA]V[NMeL][Sar]A[NMeL]V[NMeF]V[NMeD]-Piperidide; lactam N-14) for me? 0.22 10^-6 cm/sec

Then this compound:
Can you look up the measured Caco2 Papp (10^-6 cm/sec) of CC(C)C[C@@H]1NC(=O)[C@@H]2CCCN2C(=O)[C@H](C(C)C)N(C)C(=O)[C@H](C)NC(=O)[C@H](CC(C)C)N(C)C(=O)[C@@H](C(C)C)NC(=O)C[C@@H](C(=O)N2CCCCC2)NC(=O)[C@H](C(C)C)N(C)C(=O)[C@H](Cc2ccccc2)N(C)C(=O)[C@H](CC(C)C)NC(=O)[C@H](COC(C)(C)C)NC(=O)[C@H](CC(C)C)N(C)C(=O)CN(C)C1=O [pd097] ([dV][NMeL]A[NMeV]PL[Sar][NMeL]S(tBu)L[NMeF][NMeV]D-Piperidide; lactam N-13) for me? 0.54 10^-6 cm/sec

* * *

# ASSAY_NAME: Membrane permeability test using Caco-2 cells with preincubation
# Format: in vitro ADME
# CONDITION_SUMMARY: Caco-2; preincubation 20 to 24 hours; Apical FaSSIF/HBSS pH 6.0, Basal HBSS 4% BSA pH 7.4; 180 minutes; read-out: Caco2 Papp
Starred links: 1 amine or outer side, 2 acyl side, 3 side chain; linkers in the order of their positions; H or OH if unused. Non-standard residues stand in square brackets, D forms with d. Residues, ends and D or L forms follow the SMILES beside them. *: point of attachment. NMedβ3hAla = C[C@H](CC(=O)[*:2])N(C)[*:1]; NMeF = CN[C@@H](Cc1ccccc1)C(=O)O; NMeI = CC[C@H](C)[C@H](NC)C(=O)O; hPhe = N[C@@H](CCc1ccccc1)C(=O)O; NMeβAla = CN(CCC(=O)[*:2])[*:1]; NMeL = CN[C@@H](CC(C)C)C(=O)O; Abu = CC[C@H](N)C(=O)O; Sar = CNCC(=O)O; tBu = CC(C)(C)*
PROPERTY_LABEL: Papp A→B (×10⁻⁶ cm/s)
Kindly answer with a numeric value in ×10⁻⁶ cm/s, unit omitted.

Can you look up the measured Papp A→B of CC[C@@H]1NC(=O)[C@H](CC(C)C)N(C)C(=O)[C@H](COC(C)(C)C)NC(=O)[C@H]([C@@H](C)CC)N(C)C(=O)[C@H](CCc2ccccc2)NC(=O)[C@H](Cc2ccccc2)N(C)C(=O)[C@H]([C@@H](C)CC)NC(=O)[C@H](CC(C)C)N(C)C(=O)[C@H](CC(C)C)N(C)C(=O)CCN(C)C(=O)C[C@@H](C)N(C)C(=O)CN(C)C(=O)[C@H](CC(C)C)N(C)C(=O)[C@@H]2CCCN2C1=O [pd066] (cyclo([Abu]P[NMeL][Sar][NMedβ3hAla][NMeβAla][NMeL][NMeL]I[NMeF][hPhe][NMeI]S(tBu)[NMeL])) for me? 0.33
